target: human CB1 receptor (Homo sapiens); test: Human CB1 receptor binding, [3H] CP-55,940 displacement on HEK cell membranes; parameters: expressed in transfected cells; host or cells: HEK cells, doxycycline-induced; membrane preparation; settings: read-out: CB1 Ki
Sequence (P21554 whole entry): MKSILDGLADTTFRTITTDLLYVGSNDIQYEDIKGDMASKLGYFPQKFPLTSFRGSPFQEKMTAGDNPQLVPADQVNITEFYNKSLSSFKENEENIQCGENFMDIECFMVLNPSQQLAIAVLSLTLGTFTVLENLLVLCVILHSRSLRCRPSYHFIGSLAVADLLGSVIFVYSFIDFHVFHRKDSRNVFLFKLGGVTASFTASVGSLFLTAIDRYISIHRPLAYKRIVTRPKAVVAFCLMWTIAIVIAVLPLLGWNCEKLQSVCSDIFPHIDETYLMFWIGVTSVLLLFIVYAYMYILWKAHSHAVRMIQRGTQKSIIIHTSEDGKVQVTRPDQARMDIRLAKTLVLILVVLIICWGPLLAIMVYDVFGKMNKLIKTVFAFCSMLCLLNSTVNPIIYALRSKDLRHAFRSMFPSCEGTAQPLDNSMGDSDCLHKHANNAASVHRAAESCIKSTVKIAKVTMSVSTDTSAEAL
Measured Ki, listed per entry for reference.
Give the number; nM is assumed, so skip it.

Please review the entries below; each comes with its answer.
| molecule | Ki [nM] |
| --- | --- |
| CC(C)(C)[C@H](NC(=O)c1nn(Cc2ccc(F)cc2)c2ccccc12)C(=O)NCC(=O)NC[C@@H](O)CO | 5.22 |
| CC(C)(C)[C@H](NC(=O)c1nn(Cc2ccc(F)cc2)c2ccc(Cl)cc12)C(=O)NCCN1CCNC(=O)C1 | 141 |
| CC(=O)N1CCC(NC(=O)[C@@H](NC(=O)c2nn(Cc3ccc(F)cc3)c3ccccc23)C(C)(C)C)C1 (stereo partly shown) | 12 |
| CC(C)(C)[C@H](NC(=O)c1nn(Cc2ccc(C#N)cc2)c2c(F)cccc12)C(=O)N1Cc2ccccc2C1 | 15.7 |

// switching to the query molecule
Please give the documented Ki of CC(C)(C)[C@H](NC(=O)c1nn(Cc2ccc(F)cc2)c2ccccc12)C(=O)NCc1nnc2n1CCC2
110

###

Measured pEC50, listed per entry for reference.
Molecular target: human CB1 receptor (Homo sapiens)
Assay: [35S] GTPγS binding on membranes of CHO cells expressing the human CB1 receptor (agonism)
Type: biochemical
Design: expressed in transfected cells; membrane preparation
Conditions: GTPγS EC50, human CB1, CHO cell membranes
Method: Membrane preparation: CHO cells expressing the human CB1 receptor were grown to 80% confluence in Ham's F-12 Nutrient Medium (Invitrogen) containing 10% fetal bovine serum (Invitrogen), 1% pen/strep (Invitogen), 1% Nonessential amino acids (Invitrogen) and 500 μg/ml G418 (Invitrogen). Cells were released from flasks using Cell Dissociation Buffer (Invitrogen). […] Protein concentration was determined using the Micro-BCA Protein Assay Kit (Pierce) using BSA as a standard. […]
Lab note — pEC50 values are minus log10 of concentrations in M.

Please review the entries below; each comes with its answer.
| compound | pEC50 |
| --- | --- |
| CC(C)(C)[C@H](NC(=O)c1nn(Cc2ccc(F)cc2)c2ccccc12)C(=O)N1CC[C@H]1C(N)=O | 7.22 |
| CC(C)(C)[C@H](NC(=O)c1nn(Cc2ccc(C#N)cc2)c2c(F)cccc12)C(=O)NCC(N)=O | 6.63 |
| CC(C)(C)[C@H](NC(=O)c1nn(Cc2ccc(F)cc2)c2ccccc12)C(=O)NCCC(N)=O | 7.47 |
| CC(C)[C@H](NC(=O)c1nn(Cc2ccc(F)cc2)c2ccccc12)C(N)=O | 7.63 |
| CC(C)(C)[C@H](NC(=O)c1nn(Cc2ccc(F)cc2)c2c(F)cc(Cl)cc12)C(=O)NC[C@H](O)CO | 7.52 |
| CC(C)(C)C(NC(=O)c1nn(Cc2ccc(F)cc2)c2ccccc12)C(=O)NCC(O)CO (stereo not drawn) [Example 77] | 7.32 |

Please give the documented pEC50 of CC(C)(C)C(NC(=O)c1nn(Cc2ccc(F)cc2)c2ccccc12)C(=O)NCCNC(N)=O (stereo not drawn)
7.79

Please give the documented pEC50 of Cc1cc2c(C(=O)N[C@H](C(N)=O)C(C)(C)C)nn(Cc3ccc(F)cc3)c2cc1F
8.12

Please give the documented pEC50 of CC(C)(C)C(NC(=O)c1nn(Cc2ccc(F)cc2)c2c(F)cccc12)C(=O)NCCCO (stereo not drawn)
8.79

Please give the documented pEC50 of Cc1cc2c(C(=O)N[C@H](C(=O)NCCO)C(C)(C)C)nn(Cc3ccc(F)cc3)c2cc1F
8.17

Please give the documented pEC50 of COC(=O)[C@@H](O)CNC(=O)[C@@H](NC(=O)c1nn(Cc2ccc(F)cc2)c2ccccc12)C(C)(C)C
7.59
